compounds and their reported drug sensitivity score
Test system: Vero E6
ASSAY REMARKS: drug sensitivity score (DSS) for viability; higher = more toxic; extreme values may be limits of the assay
CONDITIONS USED: 72 h
When you answer, write just the number.

# input Which drug sensitivity score value belongs to Cc1ccccc1-n1c(CF)nc2ccc(N)cc2c1=O [afloqualone] ?
# output 0

# input Which drug sensitivity score value belongs to CCc1ccc(C2=CC(C)(C)Sc3ccc(C#Cc4ccc(C(=O)O)cc4)cc32)cc1 ?
# output 6.1

# input Which drug sensitivity score value belongs to Cc1c(-c2ccnn2C)cc(C(=O)NCc2ccc(S(C)(=O)=O)cn2)c(=O)n1-c1cccc(C(F)(F)F)c1 [AZD9668] ?
# output 0

// moving on: another record for drug sensitivity score
# input Which drug sensitivity score value belongs to O=C(Cn1ccnc1[N+](=O)[O-])NCCO [etanidazole] ?
# output 0

---

Tested on: U2OS
ASSAY REMARKS: cell viability relative to DMSO; higher = less toxic
CONDITIONS USED: 72 h; 1 nM
OUTCOME MEASURE: cell viability (%)
Your answer should be a plain number; it is taken to be in %.

Sample records with cell viability:
# input Which cell viability value belongs to Oc1noc2c1CCNC2 ?
# output 102

# input Which cell viability value belongs to Cc1cc(SCc2sc(-c3ccc(C(F)(F)F)cc3)nc2C)ccc1OCC(=O)O ?
# output 98.4

More entries:
# input Which cell viability value belongs to Clc1cccc(Cl)c1CSc1nnc(-c2cnccn2)s1 ?
# output 101

# input Which cell viability value belongs to CC(=O)Nc1ccc(O)cc1 ?
# output 99.9

# input Which cell viability value belongs to C[N+](C)(C)CCCCCCCCCC[N+](C)(C)C ?
# output 98.3

# input Which cell viability value belongs to N#Cc1c(O)c2c(-c3ccc(-c4ccccc4O)cc3)csc2[nH]c1=O ?
# output 103

# input Which cell viability value belongs to CCC(O)(CC(N)=O)c1ccccc1 (stereo not drawn) [3-hydroxy-3-phenylpentanamide] ?
# output 95

# input Which cell viability value belongs to CC(C)C(=O)OC[C@@]1(N=[N+]=[N-])O[C@@H](n2ccc(N)nc2=O)[C@H](OC(=O)C(C)C)[C@@H]1OC(=O)C(C)C ?
# output 99.6

---

Test system: HepG2
ASSAY REMARKS: cell viability relative to DMSO; higher = less toxic
CONDITIONS USED: 72 h; 1 nM
OUTCOME MEASURE: cell viability (%)
Your answer should be a plain number; it is taken to be in %.

# input Which cell viability value belongs to Cc1c(C(=O)Nc2ccc(N3CCC(N4CCOCC4)CC3)c(C#N)c2)cnn1-c1ccc(Cl)cc1 ?
# output 106

# input Which cell viability value belongs to Clc1cccc2c1CN(C1=NCCN1)C2 ?
# output 96.7

# input Which cell viability value belongs to CC(=O)N[C@@H](CCC(N)=O)C(=O)O [aceglutamide] ?
# output 90.7

# input Which cell viability value belongs to Nc1ccc(S(=O)(=O)Nc2nccs2)cc1 ?
# output 102

# input Which cell viability value belongs to O=C(O)CCNC(=O)c1ccccc1 ?
# output 94.8

More entries:
# input Which cell viability value belongs to CC(=O)O[C@]1(C(C)=O)CC[C@H]2[C@@H]3C[C@H](C)C4=CC(=O)CC[C@]4(C)[C@H]3CC[C@@]21C [medroxyprogesterone-acetate] ?
# output 110

# input Which cell viability value belongs to CC(CC(C(N)=O)(c1ccccc1)c1ccccc1)N(C)C (centres undefined) [aminopentamide] ?
# output 100

# input Which cell viability value belongs to CCO[C@H]1O[C@@H]2O[C@@]3(C)CC[C@H]4[C@H](C)CC[C@@H]([C@H]1C)[C@@]24OO3 ?
# output 107

# input Which cell viability value belongs to c1ccc(-c2n[nH]c3c2oc2ccccc23)cc1 ?
# output 104

Data origin: the supplement of paper PMC13380429
